- test-system: Cytochrome P450 3A4 (Homo sapiens)
- procedure-text: qHTS Assay for Inhibitors and Substrates of Cytochrome P450 3A4 (AID 884); note: nearly all actives have a fitted effect of over 50% in size
- test-conditions: recombinant CYP3A4, Luciferin-PPXE luminescence; series mostly up to 57.1 µM
Inconclusive results are not listed. Activity calls are given as the source filed them. Calls come from the whole dose curve; as a rule, active = well fitted inhibition curve with a large enough effect; inconclusive = small, poorly fitted or top-dose-only effect; inactive = no such curve, though single readings can be large or run the other way.
Outcome codes: Y for active, N for inactive

| compound | class-name |
| --- | --- |
| CC(C)=CCC/C(C)=C/CO/N=C1/C[C@@H](O)[C@@H](O)[C@@H]2[C@@H]3C(=O)N(Cc4ccc5c(c4)OCO5)C(=O)[C@H]3CC[C@@H]12 | Y |
| COc1ccc(C(=O)C2C3C4COC(O4)C(=O)C3C3C=Cc4ccccc4N32)c(OC)c1 (stereo not given) | Y |
| CCCCCCN(C(=O)CCCCCN1C(=O)NC(c2ccc3ccccc3c2)C(C(=O)OCc2ccccc2)=C1C)C(C(=O)NCCCC)c1ccc(OCC(=O)OC)c(C(=O)OC)c1 (stereo not given) | Y |
| CNC(=O)[C@@]1(Cc2ccccc2)C=C[C@@H](C)N1C(C)=O | N |
| COC(=O)c1cccc(C23CC4(C2)[C@H](CN(Cc2cccnc2)[C@@H]4c2ccccc2)C3c2ccc(Cl)nc2)c1 (stereo not given in full) | Y |
| CC1(C(=O)O)C=CCN1C(=O)c1ccccc1 (stereo not given) | N |
| CC(C)=CCc1c(O)cc2occ(-c3ccc4c(c3)OCO4)c(=O)c2c1O | Y |
| C=C1C2CC[C@@]3(C)C(c4ccoc4)OC(=O)C[C@@]13OC1CC(OC(C)=O)C(C)(C)C(CC(=O)OC)[C@@]12C (stereo not given in full) | Y |
| C[C@H]1O[C@@H](O[C@H]2[C@@H](O)C[C@H](O[C@H]3[C@@H](O)C[C@H](O[C@H]4CC[C@]5(C)C6CC[C@]7(C)[C@@H](C8=CC(=O)OC8)CC[C@]7(O)C6CC[C@@H]5C4)O[C@@H]3C)O[C@@H]2C)C[C@H](O)[C@@H]1O (stereo not given in full) | N |
| CO[C@H]1COC(=O)C/C=C\[C@H](C)[C@@H](NS(=O)(=O)c2ccc(C)cc2)COC(=O)C/C=C\[C@@H]1C | Y |
| COC(=O)NC(c1ccco1)C(C(C)=O)C(=O)OC (stereo not given) | Y |
| COc1cccc2c1C(=O)CC(c1ccccc1)O2 (stereo not given) | N |
| CCC1=C2CC[C@H]3C(=O)N(c4ccccc4)C(=O)[C@H]3[C@H]2[C@@]2(Cc3ccccc3)C(=NCc3ccccc3)OC(=O)N2C1=O | Y |
| CCCNC(=O)OC[C@H]1O[C@@H](CCO/N=C2/[C@H]3O[C@@H]3[C@@H](O)[C@H]3[C@H]2CCn2c(=O)n(-c4ccccc4)c(=O)n23)C=C[C@@H]1Oc1ccc(OC)cc1 | Y |
| CCC1=C2CC[C@H]3C(=O)NC(=O)[C@H]3[C@H]2[C@@]2(Cc3ccccc3)C(=NCc3ccccc3)OC(=O)N2C1=O | Y |

----------
// reported activity change, negative = inhibition per item
- test-system: Cytochrome P450 3A4 (Homo sapiens)
- procedure-text: qHTS Assay for Inhibitors and Substrates of Cytochrome P450 3A4 (AID 884); note: nearly all actives have a fitted effect of over 50% in size; for activity change, negative = inhibition: % is set by controls: 0 for no effect and ±100 for the full control effect
- test-conditions: recombinant CYP3A4, Luciferin-PPXE luminescence; series mostly up to 57.1 µM
Inconclusive results are not listed. Active and inactive are the calls of the source. Calls come from the whole dose curve; as a rule, active = well fitted inhibition curve with a large enough effect; inconclusive = small, poorly fitted or top-dose-only effect; inactive = no such curve, though single readings can be large or run the other way.
readout-type: activity change, negative = inhibition

| molecule | readout-type | endpoint-value |
| --- | --- | --- |
| CCOC(=O)[C@]1(C(/C=C/c2ccco2)NC(=O)OC)CCCC1=O (stereo partly specified) | activity change, negative = inhibition | -21.5% [at 11.4 µM] (inactive) |
| CCOC(=O)[C@]1(C(NC(=O)OC)c2cccc(C)c2)CCCC1=O (stereo partly specified) | activity change, negative = inhibition | -23.1% [at 11.4 µM] (inactive) |
| COC(=O)NC(c1ccccc1)[C@@]1(C(=O)OC)CCCC1=O (stereo partly specified) | activity change, negative = inhibition | -15.7% [at 11.4 µM] (inactive) |
| COC(=O)NC(c1cccc(C)c1)[C@@]1(C(=O)OC)CCCC1=O (stereo partly specified) | activity change, negative = inhibition | -25.8% [at 11.4 µM] (inactive) |
| COC(C(C)/C=C/CC(=O)OCCCc1ccccc1)C1CCCCC1 (stereo unspecified) | activity change, negative = inhibition | -20.5% [at 11.4 µM] (inactive) |
| CCOC(=O)CCCCC1=CC2=CC(=O)C(C)(O)C(=O)C2=CO1 (stereo unspecified) | activity change, negative = inhibition | -20.4% [at 11.4 µM] (inactive) |
| CC(=O)OCC1OC(C#Cc2ccccc2)C=CC1O (stereo unspecified) | activity change, negative = inhibition | -14.6% [at 11.4 µM] (inactive) |
| COc1ccc(/C=C/C(=O)c2ccccc2O)cc1 | activity change, negative = inhibition | -17.2% [at 11.4 µM] (inactive) |
| CC(=O)c1ccc(C2C=CC(O)C(CO)O2)cc1 (stereo unspecified) | activity change, negative = inhibition | -3.24% [at 11.4 µM] (inactive) |
| COC(=O)NC(c1ccc2ccccc2c1)C(C(C)=O)C(=O)OC (stereo unspecified) | activity change, negative = inhibition | -19.4% [at 11.4 µM] (inactive) |
| COCC#Cc1ccc(C2NC(C(=O)O)CCC2C)cc1 (stereo unspecified) | activity change, negative = inhibition | -8.92% [at 11.4 µM] (inactive) |

----------
- procedure-text: qHTS assay for small molecule agonists of the antioxidant response element (ARE) signaling pathway (AID 651741); for activation: % of control where 0% means no effect
- test-conditions: HepG2 ARE-bla reporter, beta-lactamase FRET ratio, 16 h; series mostly up to 96 µM
Results filed as inconclusive are left out. The source made the active and inactive calls. Calls follow the shape of the dose curve; as a rule, active = well fitted activation curve with a large enough effect in the signal ratio; inconclusive = small, poorly fitted or top-dose-only effect, or effect the other way, or a change in a side signal; inactive = flat fitted curve, though single readings scatter; the % refers to the signal ratio.
Outcome codes: active, inactive

| compound | class-name |
| --- | --- |
| CCCCCCCCCCCCCCCCN(C)C | inactive |
| CC1(C)[C@@H]([C@@H](Br)C(Br)(Br)Br)[C@H]1C(=O)O[C@H](C#N)c1cccc(Oc2ccccc2)c1 | active |
| COC(=O)C(C)Oc1ccc(Oc2ncc(C(F)(F)F)cc2Cl)cc1 (configuration not stated) | inactive |
| Cl[Si](Cl)(c1ccccc1)c1ccccc1 | active |
| OCc1cccc(Oc2ccccc2)c1 | inactive |
| C=C[Si](C)(C)O[Si](C)(C)C=C | inactive |
| CC(C)c1cccc(C(C)C)c1 | inactive |
| CCc1cccc(C)c1N(C(=O)CS(=O)(=O)O)[C@@H](C)COC | inactive |
| OCCC(F)(F)C(F)(F)C(F)(F)C(F)(F)C(F)(F)C(F)(F)C(F)(F)C(F)(F)F | inactive |
| COc1ccccc1NC(=O)CC(C)=O | inactive |
| CCC(C)OC(=O)N1CCCCC1CCO (configuration not stated) | inactive |
| OCC(CO)(CO)COCC(CO)(CO)CO | inactive |
| CC(C)(C)c1n[nH]c(=O)n(N)c1=O | inactive |
| CCCCCCCC/C=C\CCCCCCCCCCCCC | inactive |
| CC(C)OB(OC(C)C)OC(C)C | inactive |
| Cc1ccc(N)c(S(=O)(=O)O)c1 | active |
| CCCCCCCC1CCC(=O)O1 (configuration not stated) | inactive |
| O=C(Nc1ccccc1)c1cc(Cl)ccc1O | active |
| C=C(C)C(=O)OCCCCCCCCCCCCCCCC | inactive |
| Cc1ccc(N=Nc2c(O)ccc3ccccc23)c([N+](=O)[O-])c1 | active |
| C=C[Si](OCCOC)(OCCOC)OCCOC | inactive |
| CCCCCCCCCCO | inactive |
| C[Si]1(C)O[Si](C)(C)O[Si](C)(C)O[Si](C)(C)O1 | inactive |
| CCNc1nc(N)nc(Cl)n1 | inactive |
| CN(C)c1nc(=O)n(C2CCC(O)CC2)c(=O)n1C (configuration not stated) | inactive |
| CCCCCCCC/C=C\CCCCCCCCO | inactive |
| CCOC(=O)C1=NN(c2ccc(Cl)cc2Cl)C(C)(C(=O)OCC)C1 (configuration not stated) | inactive |

----------
- Tested on: CP260
- procedure-text: qHTS profiling for inhibitors of Plasmodium falciparum proliferation (AID 504749); note: nearly all actives have a fitted effect of over 60% in size
- test-conditions: P. falciparum in erythrocytes, SYBR Green DNA, 72 h; series mostly up to 28.7 µM
- Method: NIH National Institute of Allergy and Infectious Diseases [NIAID] NIH Chemical Genomics Center [NCGC] […] Because mature erythrocytes lack DNA, only Plasmodium-derived DNA is detected. NCGC Assay Protocol Summary: The SYBR Green viability assay was adapted from a method described previously (Plouffe et al., 2008). […] The following morning, fluorescence intensity at 485(14) nm excitation and 535(25) nm emission wavelengths was measured on an EnVision (Perkin Elmer) plate reader. […]
Inconclusive results are not listed. Active and inactive are the calls of the source. Calls follow the shape of the dose curve; as a rule, active = well fitted inhibition curve with a large enough effect; inconclusive = small, poorly fitted or top-dose-only effect; inactive = flat fitted curve, though single readings scatter. Square brackets hold non-standard residues; d marks the D form. Peptide text beside a SMILES is read from it. Orn = NCCC[CH](N)C(=O)O
Outcome codes: YES for active, NO for inactive

| compound | class-name |
| --- | --- |
| COc1ccc(-c2nc3ccc(C4=C(C)CC(=O)NN4)cc3[nH]2)cc1 | NO |
| Cn1cc(O)nc1NC(=O)Nc1cccc(Cl)c1 | NO |
| CC(=O)OCC1=C(C(=O)O)N2C(=O)C(NC(=O)Cc3ccccc3)C2SC1 (stereo not given) | NO |
| C=CC1=C(C(=O)O)N2C(=O)[C@@H](NC(=O)C(N=O)c3csc(N)n3)[C@H]2SC1 (stereo not given in full) | NO |
| CC(C)CC1NC(=O)C(CCCN)NC(=O)C(C(C)C)NC(=O)C2CCCN2C(=O)C(Cc2ccccc2)NC(=O)C(CC(C)C)NC(=O)C(CCCN)NC(=O)C(C(C)C)NC(=O)C2CCCN2C(=O)C(Cc2ccccc2)NC1=O (stereo not given) (cyclo(FPV[Orn]LFPV[Orn]L); configuration not given here) | YES |
| CNCC(=O)NC(CCCN=C(N)N)C(=O)NC(C(=O)NC(Cc1ccc(O)cc1)C(=O)NC(C(=O)NC(Cc1cnc[nH]1)C(=O)N1CCCC1C(=O)NC(C)C(=O)O)C(C)C)C(C)C (stereo not given) | NO |
| CC(N)C(=O)NCC(=O)NC1CSSCC(C(=O)O)NC(=O)C(CO)NC(=O)C(C(C)O)NC(=O)C(Cc2ccccc2)NC(=O)C(C(C)O)NC(=O)C(CCCCN)NC(=O)C(Cc2c[nH]c3ccccc23)NC(=O)C(Cc2ccccc2)NC(=O)C(Cc2ccccc2)NC(=O)C(CC(N)=O)NC(=O)C(CCCCN)NC1=O (stereo not given) | NO |
| CCOC(=O)C(CS)NCCN[C@@H](CS)C(=O)OCC (stereo not given in full) | NO |
| O=C1/C(=C\c2cccs2)CCC/C1=C/c1cccs1 | NO |
| CCC1NC(=O)C(NC(=O)c2ncccc2O)C(C)OC(=O)C(c2ccccc2)NC(=O)C2CC(=O)CCN2C(=O)C(Cc2ccccc2)N(C)C(=O)C2CCCN2C1=O (stereo not given) | NO |

Where these numbers come from: PubChem BioAssay (NCATS)
